Catalogue of molecules with associated TGI
system: T-47D breast; test: NCI tumour cell line growth inhibition, 48 h
Give a bare numeral; the unit µM is implied.

Worked examples follow.
Molecule | Target Or System | TGI / µM
O=C1c2c(Br)sc(Br)c2C(NC(=O)C(F)(F)F)C1O (stereo unspecified) | T-47D breast | 55.9
O=C(Nc1ccc(Cl)cc1)c1cc(-c2ccc(F)cc2)c2sc(=O)[nH]c2n1 | T-47D breast | 5.25

Next item in the queue.
input: Return the recorded TGI value; entry: O=C1CC(Br)c2c(Br)sc(Br)c21 (stereo unspecified)
output: 38.3

---

Catalogue of compounds with associated TGI
test system: M19-MEL melanoma; assay: NCI tumour cell line growth inhibition, 48 h

Worked examples follow.
Compound | TGI
COc1ccc(C2C(C(=O)O)=C(CO)Oc3cc4c(cc32)OCO4)cc1 (stereo not drawn) | > 100 µM
N#Cc1nc(C2OC(COC(=O)c3ccccc3)C(OC(=O)c3ccccc3)C2OC(=O)c2ccccc2)oc1N (stereo not drawn) | > 100 µM

input: Return the recorded TGI value; entry: "COC(=O)c1cccc2cccc(C(=O)Nc3ccc(C)cc3C)c12"
output: > 100 µM
